- Tested on: 8305C (Thyroid Gland Carcinoma)
- EXPERIMENT: combination Emax (second highest fraction inhibited in the dose matrix, 72 h); higher = more inhibition; extreme values may be limits of the assay
combination Emax of 0.5 or higher: T. Under 0.5: F.

>>> class_assignment("NC1(C(=O)N[C@@H](CCO)c2ccc(Cl)cc2)CCN(c2ncnc3[nH]ccc23)CC1 [Capivasertib] + CC(=O)c1c(C)c2cnc(Nc3ccc(N4CCNCC4)cn3)nc2n(C2CCCC2)c1=O [Palbociclib] (first compound max 10 µM, 7x7, partner max 10 µM)")
"F"
>>> class_assignment("COc1cccc(OCCCN)c1-c1cc(Nc2cnc(C#N)cn2)n[nH]1 [Prexasertib] + O=C(c1cc(Cc2n[nH]c(=O)c3ccccc23)ccc1F)N1CCN(C(=O)C2CC2)CC1 [Olaparib] (first compound max 1 µM, 7x7, partner max 10 µM)")
"T"
>>> class_assignment("O=C(c1cc(Cc2n[nH]c(=O)c3ccccc23)ccc1F)N1CCN(C(=O)C2CC2)CC1 [Olaparib] + Cc1c2c(nn1C)CSCc1cc(n(C)n1)CSc1cc(c3ccccc3c1)OCCCc1c(C(=O)O)n(C)c3c-2c(Cl)ccc13 [AZD5991] (first compound max 10 µM, 7x7, partner max 1 µM)")
"F"
>>> class_assignment("CS(=O)(=O)CCNCc1ccc(-c2ccc3ncnc(Nc4ccc(OCc5cccc(F)c5)c(Cl)c4)c3c2)o1 [Lapatinib] + Cn1cnc2c(F)c(Nc3ccc(Br)cc3Cl)c(C(=O)NOCCO)cc21 [Selumetinib] (first compound max 10 µM, 7x7, partner max 10 µM)")
"T"
>>> class_assignment("COc1nnc2ccc(N3CCC(c4ccc(OCCN5CCN(C)C(=O)[C@H]5C)cc4)CC3)nn12 [AZD5153] + C[C@@H]1COCCN1C2=NC(=NC(=C2)C3(CC3)[S@](=N)(=O)C)C4=C5C=CNC5=NC=C4 [AZD6738] (first compound max 1 µM, 7x7, partner max 10 µM)")
"T"
>>> class_assignment("COc1nnc2ccc(N3CCC(c4ccc(OCCN5CCN(C)C(=O)[C@H]5C)cc4)CC3)nn12 [AZD5153] + Cn1cnc2c(F)c(Nc3ccc(Br)cc3Cl)c(C(=O)NOCCO)cc21 [Selumetinib] (first compound max 1 µM, 7x7, partner max 10 µM)")
"T"
>>> class_assignment("C=CCn1c(=O)c2cnc(Nc3ccc(N4CCN(C)CC4)cc3)nc2n1-c1cccc(C(C)(C)O)n1 [AZD1775] + Nc1ccn([C@@H]2O[C@H](CO)[C@@H](O)C2(F)F)c(=O)n1 [Gemcitabine] (first compound max 1 µM, partner max 0.3 µM)")
"T"

* * *

- Test system: EN (Endometrial Carcinoma)
- EXPERIMENT: Bliss excess, mean over the matrix (fraction); higher = more synergy
Bliss excess of -0.05 or higher: 1. Under -0.05: -1.

>>> class_assignment("CC(=O)c1c(C)c2cnc(Nc3ccc(N4CCNCC4)cn3)nc2n(C2CCCC2)c1=O [Palbociclib] + Cc1c2c(nn1C)CSCc1cc(n(C)n1)CSc1cc(c3ccccc3c1)OCCCc1c(C(=O)O)n(C)c3c-2c(Cl)ccc13 [AZD5991] (first compound max 10 µM, 7x7, partner max 1 µM)")
-1
>>> class_assignment("Cc1cc2ncnn2cc1Nc1ncc2c(n1)n(C1CCOCC1)c(=O)n2C [AZD7648] + COc1cc([C@@H]2c3cc4c(cc3[C@@H](O[C@@H]3O[C@@H]5CO[C@@H](C)O[C@H]5[C@H](O)[C@H]3O)[C@H]3COC(=O)[C@H]23)OCO4)cc(OC)c1O [Etoposide] (first compound max 10 µM, 7x7, partner max 10 µM)")
1
>>> class_assignment("CN(CCO)CC[C@H](CSc1ccccc1)Nc1ccc(S(=O)(=O)NC(=O)c2ccc(N3CCC([C@@H](O)c4ccccc4-c4ccc(Cl)cc4)CC3)cc2)cc1S(=O)(=O)C(F)(F)F [AZD4320] + C1CN(CCC1(C(=O)N[C@@H](CCO)C2=CC=C(C=C2)Cl)N)C3=NC=NC4=C3C=CN4 [Capivasertib] (first compound max 1 µM, 7x7, partner max 3 µM)")
1
>>> class_assignment("CN(CCO)CC[C@H](CSc1ccccc1)Nc1ccc(S(=O)(=O)NC(=O)c2ccc(N3CCC([C@@H](O)c4ccccc4-c4ccc(Cl)cc4)CC3)cc2)cc1S(=O)(=O)C(F)(F)F [AZD4320] + C=CCn1c(=O)c2cnc(Nc3ccc(N4CCN(C)CC4)cc3)nc2n1-c1cccc(C(C)(C)O)n1 [AZD1775] (first compound max 1 µM, partner max 1 µM)")
1
>>> class_assignment("C[C@@H](Nc1cc(F)cc(F)c1)c1cc(C(=O)N(C)C)cc2c(=O)cc(N3CCOCC3)oc12 [AZD8186] + CC(=O)c1c(C)c2cnc(Nc3ccc(N4CCNCC4)cn3)nc2n(C2CCCC2)c1=O [Palbociclib] (first compound max 10 µM, 7x7, partner max 10 µM)")
1
>>> class_assignment("COc1nnc2ccc(N3CCC(c4ccc(OCCN5CCN(C)C(=O)[C@H]5C)cc4)CC3)nn12 [AZD5153] + CC1(C)CCC(CN2CCN(c3ccc(C(=O)NS(=O)(=O)c4ccc(NCC5CCOCC5)c([N+](=O)[O-])c4)c(Oc4cnc5[nH]ccc5c4)c3)CC2)=C(c2ccc(Cl)cc2)C1 [Venetoclax] (first compound max 1 µM, 7x7, partner max 1 µM)")
-1

* * *

- Test system: NCI-H747 (Colorectal Carcinoma)
- EXPERIMENT: Bliss excess, mean over the matrix (fraction); higher = more synergy
We begin with a simple list: items and their reported Bliss excess.
METRIC NAME: Bliss excess

>>> experimental_result("Cc1c2c(nn1C)CSCc1cc(n(C)n1)CSc1cc(c3ccccc3c1)OCCCc1c(C(=O)O)n(C)c3c-2c(Cl)ccc13 [AZD5991] + CC1(C)CCC(CN2CCN(c3ccc(C(=O)NS(=O)(=O)c4ccc(NCC5CCOCC5)c([N+](=O)[O-])c4)c(Oc4cnc5[nH]ccc5c4)c3)CC2)=C(c2ccc(Cl)cc2)C1 [Venetoclax] (first compound max 1 µM, 7x7, partner max 1 µM)")
-0.0438
>>> experimental_result("CC1(C)CCC(CN2CCN(c3ccc(C(=O)NS(=O)(=O)c4ccc(NCC5CCOCC5)c([N+](=O)[O-])c4)c(Oc4cnc5[nH]ccc5c4)c3)CC2)=C(c2ccc(Cl)cc2)C1 [Venetoclax] + Cc1cc2ncnn2cc1Nc1ncc2c(n1)n(C1CCOCC1)c(=O)n2C [AZD7648] (first compound max 1 µM, 7x7, partner max 10 µM)")
-0.0124
>>> experimental_result("CC1(C)CCC(CN2CCN(c3ccc(C(=O)NS(=O)(=O)c4ccc(NCC5CCOCC5)c([N+](=O)[O-])c4)c(Oc4cnc5[nH]ccc5c4)c3)CC2)=C(c2ccc(Cl)cc2)C1 [Venetoclax] + C[C@@H](Nc1cc(F)cc(F)c1)c1cc(C(=O)N(C)C)cc2c(=O)cc(N3CCOCC3)oc12 [AZD8186] (first compound max 1 µM, 7x7, partner max 3 µM)")
0.0197

* * *

We begin with a simple list: items and their reported Bliss excess.
- Test system: PCI-30 (Head and Neck Carcinoma)
- EXPERIMENT: Bliss excess, mean over the matrix (fraction); higher = more synergy
METRIC NAME: Bliss excess

>>> experimental_result("CS(=O)(=O)CCNCc1ccc(-c2ccc3ncnc(Nc4ccc(OCc5cccc(F)c5)c(Cl)c4)c3c2)o1 [Lapatinib] + NC1(c2ccc(-c3nc4ccn5c(=O)[nH]nc5c4cc3-c3ccccc3)cc2)CCC1 [MK-2206] (first compound max 10 µM, 7x7, partner max 10 µM)")
-0.0005
>>> experimental_result("Cc1c2c(nn1C)CSCc1cc(n(C)n1)CSc1cc(c3ccccc3c1)OCCCc1c(C(=O)O)n(C)c3c-2c(Cl)ccc13 [AZD5991] + Nc1ccn([C@@H]2O[C@H](CO)[C@@H](O)C2(F)F)c(=O)n1 [Gemcitabine] (first compound max 1 µM, 7x7, partner max 0.3 µM)")
-0.0531
>>> experimental_result("C[C@@H]1COCCN1c1cc(C2([S@](C)(=N)=O)CC2)nc(-c2ccnc3[nH]ccc23)n1 [AZD6738] + C1CC(C1)(C(=O)[O-])C(=O)[O-].N.N.[Pt+2] [Carboplatin] (first compound max 10 µM, 7x7, partner max 10 µM)")
-0.0362
>>> experimental_result("C[C@@H]1COCCN1c1cc(C2([S@](C)(=N)=O)CC2)nc(-c2ccnc3[nH]ccc23)n1 [AZD6738] + Nc1ccn([C@@H]2O[C@H](CO)[C@@H](O)C2(F)F)c(=O)n1 [Gemcitabine] (first compound max 10 µM, 7x7, partner max 0.3 µM)")
0.0539

* * *

- Tested on: RKO (Colorectal Carcinoma)
- EXPERIMENT: Bliss excess, mean over the matrix (fraction); higher = more synergy
We begin with a simple list: items and their reported Bliss excess.
METRIC NAME: Bliss excess

>>> experimental_result("C[C@@H](Nc1cc(F)cc(F)c1)c1cc(C(=O)N(C)C)cc2c(=O)cc(N3CCOCC3)oc12 [AZD8186] + C1CN(CCC1(C(=O)N[C@@H](CCO)C2=CC=C(C=C2)Cl)N)C3=NC=NC4=C3C=CN4 [AZD5363] (first compound max 10 µM, 7x7, partner max 10 µM)")
0.0284
>>> experimental_result("CN(C)CCCOc1ccc(-c2ccc3ncc4c(c3c2)n(C2CCOCC2)c(=O)n4C)cn1 [AZD0156] + O=C(c1cc(Cc2n[nH]c(=O)c3ccccc23)ccc1F)N1CCN(C(=O)C2CC2)CC1 [Olaparib] (first compound max 3 µM, partner max 3 µM)")
0.0736
>>> experimental_result("C[C@@H](c1ccc2nccn2c1)n1nnc2ncc(-c3cnn(C)c3)nc21 [Savolitinib] + CC1(C)CCC(CN2CCN(c3ccc(C(=O)NS(=O)(=O)c4ccc(NCC5CCOCC5)c([N+](=O)[O-])c4)c(Oc4cnc5[nH]ccc5c4)c3)CC2)=C(c2ccc(Cl)cc2)C1 [Venetoclax] (first compound max 1 µM, 7x7, partner max 1 µM)")
-0.05
